A set of compounds tested on Potassium channel subfamily K member 9 (Homo sapiens), with measured IC50:

Example entries and their recorded answers appear below.
compound	IC50
CCOc1ccccc1NC(=O)c1cccc(NC(=O)C(C)(C)C)c1	30600 nM
COc1ccccc1NC(=O)c1cccc(NC(=O)c2ccccc2)c1	1410 nM
COc1ccccc1NC(=O)c1cccc(NC(=O)c2ccccc2C(F)(F)F)c1	1320 nM
COc1ccccc1NC(=O)c1cccc(NC(=O)C2CCCCC2)c1	2160 nM
CC(C1CC2CCC1C2)n1c(-c2ccsc2)n[nH]c1=S (configuration not stated)	1000 nM
Cc1cccc(C(=O)Nc2cccc(NC(=O)c3ccccc3C)c2)c1	940 nM
O=C(Nc1cccc(NC(=O)C2CCCCC2)c1)c1ccccc1	8000 nM
CCOc1ccccc1NC(=O)c1cccc(NC(=O)C2CCCC2)c1	1840 nM
CC(C1CC2CCC1C2)n1c(-c2ccco2)n[nH]c1=S (configuration not stated)	320 nM
Cc1cccc(C(=O)Nc2cccc(NC(=O)c3cccs3)c2)c1	6850 nM

Can you look up IC50 on Potassium channel subfamily K member 9 (Homo sapiens) for `CCOc1ccccc1C(=O)Nc1cccc(NC(=O)c2ccccc2C(F)(F)F)c1` ?
1040 nM

Can you look up IC50 on Potassium channel subfamily K member 9 (Homo sapiens) for `CCOc1ccccc1C(=O)Nc1cccc(NC(=O)c2ccccc2OC)c1` ?
1980 nM

Can you look up IC50 on Potassium channel subfamily K member 9 (Homo sapiens) for Cc1ccccc1-c1n[nH]c(=S)n1C(C)C1CC2CCC1C2 (configuration not stated) ?
720 nM

Can you look up IC50 on Potassium channel subfamily K member 9 (Homo sapiens) for `CCOc1ccccc1NC(=O)c1cccc(NC(=O)CC2CCCCC2)c1` ?
1920 nM

Can you look up IC50 on Potassium channel subfamily K member 9 (Homo sapiens) for `Cc1cccc(C(=O)Nc2cccc(NC(=O)c3ccccc3C(C)C)c2)c1` ?
2390 nM

Can you look up IC50 on Potassium channel subfamily K member 9 (Homo sapiens) for `COc1cccc(C(=O)Nc2cccc(NC(=O)c3ccccc3)c2)c1` ?
25900 nM

Can you look up IC50 on Potassium channel subfamily K member 9 (Homo sapiens) for `COc1ccccc1C(=O)Nc1cccc(NC(=O)c2ccccc2OC)c1` ?
3620 nM

---

A set of compounds tested on UniProtKB Q9NPC2, with measured IC50:

Example entries and their recorded answers appear below.
compound	target_entity	IC50
COc1ccccc1C(=O)Nc1cccc(NC(=O)c2ccccc2C(C)C)c1	UniProtKB Q9NPC2	0.74 µM
COc1ccccc1C(=O)Nc1cccc(NC(=O)c2ccccc2C)c1	UniProtKB Q9NPC2	3.49 µM

Give its IC50 value. Item: CC(C1CC2CCC1C2)n1c(-c2ccoc2)n[nH]c1=S (stereo not given)
4.25 µM

Give its IC50 value. Item: COc1cccc(-c2n[nH]c(=S)n2C(C)C2CC3CCC2C3)c1 (stereo not given)
0.21 µM

Give its IC50 value. Item: `COc1ccccc1NC(=O)c1cccc(NC(=O)CC2CCCC2)c1`
2.63 µM

Give its IC50 value. Item: `CCOc1ccccc1NC(=O)c1cccc(NC(=O)c2cccc(Cl)c2)c1`
1.84 µM

Give its IC50 value. Item: `CCOc1ccccc1NC(=O)c1cccc(NC(=O)c2ccccc2OC)c1`
1.18 µM

Give its IC50 value. Item: CC(C1CC2CCC1C2)n1c(-c2ccccc2Cl)n[nH]c1=S (stereo not given)
0.47 µM

Give its IC50 value. Item: `COc1ccccc1C(=O)Nc1cccc(NC(=O)c2ccccc2)c1`
1.74 µM

Give its IC50 value. Item: `Cc1cccc(C(=O)Nc2cccc(NC(=O)c3ccco3)c2)c1`
1.67 µM
